assayedSystem: human ADRA2C receptor (Homo sapiens (Human), UniProt P18825)
Sequence (P18825 whole entry): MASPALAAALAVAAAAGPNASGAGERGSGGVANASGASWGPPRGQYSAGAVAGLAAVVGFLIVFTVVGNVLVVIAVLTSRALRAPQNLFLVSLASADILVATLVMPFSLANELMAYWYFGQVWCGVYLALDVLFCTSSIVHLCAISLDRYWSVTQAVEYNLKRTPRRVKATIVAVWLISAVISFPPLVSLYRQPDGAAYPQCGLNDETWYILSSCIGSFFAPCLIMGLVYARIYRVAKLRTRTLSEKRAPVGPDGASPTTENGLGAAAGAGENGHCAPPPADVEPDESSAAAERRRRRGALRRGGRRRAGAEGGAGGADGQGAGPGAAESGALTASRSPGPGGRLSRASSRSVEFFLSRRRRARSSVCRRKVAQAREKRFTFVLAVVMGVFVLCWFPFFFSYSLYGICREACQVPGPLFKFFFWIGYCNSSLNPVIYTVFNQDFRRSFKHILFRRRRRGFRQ
experimentSummary: In vitro activity assay to determine the inhibition of recombinant ADRA2C (CHO-K1 cells, aequorin bioluminescence)
Type: cell-based
details: inhibition of noradrenaline-induced bioluminescence signal; some mean values from multiple determinations; read-out: ARα2C IC50
Experimental: B-2. In Vitro Activity Assay to Determine the Inhibition of Recombinant ADRA2C The human ADRA2C receptor belongs to the G protein(guanine-dependent protein)-coupled receptors, the main function of which is the transduction of signals into the interior of the cell. […] The activity of the test substances was determined via their ability to inhibit the agonist-induced increase of the bioluminescence signal. […] The IC50 value is calculated using the 4 parameter logistic function (Hill function): […]
pIC50: −log10 of the molar value.
quantity: pIC50

Sample records with pIC50:
1. C[C@@H]1CCCN(C2CCN(c3ncc(C(=O)NCc4cccc(OC(F)(F)F)n4)s3)CC2)C1 : 6.19
2. CCOC1CCCN(C2CCN(c3ncc(C(=O)NCc4ncc(F)cc4F)s3)CC2)C1 (single isomer, unassigned) [Example 123] : 6.59
3. C[C@@H]1CCCN(C2CCN(c3ncc(C(=O)NCc4ccccc4F)s3)CC2)C1 : 7.59
4. C[C@@H]1CCCN(C2CCN(c3ncc(C(=O)NCc4cccnc4)s3)CC2)C1 : 6.22
5. O=C(NCc1ncc(F)cc1F)c1cnc(N2CCC(N3CCCC(C(F)F)C3)CC2)s1 (racemic) : 6.77
6. C[C@@H]1CCCN(C2CCN(c3nc(Cl)c(C(=O)NCc4ncc(F)cc4F)s3)CC2)C1 : 7.39

[a] O=C(NCc1ncc(F)cc1F)c1cnc(N2CCC(N3CCCC(CCF)C3)CC2)s1 (racemic)
[b] C[C@@H]1CCCN(C2CCN(c3ncc(C(=O)Nc4cc(Cl)ccc4O)s3)CC2)C1
[c] O=C(NCc1ncc(F)cc1F)c1cnc(N2CCC(N3CCc4ccc(Cl)cc4C3)CC2)s1
[d] C[C@@H]1CCCN(C2CCN(c3ncc(C(=O)Nc4ccccc4C4CC4)s3)CC2)C1
Order by pIC50, ascending. Sort the labels as requested; that list is your answer.
b, d, a, c

[A] C[C@@H]1CCCN(C2CCN(c3ncc(C(=O)NCc4ncccc4Cl)s3)CC2)C1
[B] O=C(NCc1ncc(F)cc1F)c1cnc(N2CCC(N3CCCC(COCC4(CF)CC4)C3)CC2)s1 (racemic)
[C] C[C@@H]1CCCN(C2CCN(c3nc(C(=O)NCc4ncc(F)cc4F)co3)CC2F)C1 (mixture of isomers)
Order by pIC50, ascending. Sort the labels as requested; that list is your answer.
A, B, C
(A: 6.55, B: 7.13, C: 8.92)
